Ki reference
molecular target: 5HT1A (Rattus norvegicus, UniProt P19327); construct: prepared from brain of rats or HEK293 cells, which expressed the receptor; from tissue; host or cells: rat brain membranes; assay: radioligand binding to serotonin receptor, cell membrane sample, Ki by Cheng-Prusoff; conditions: rat hippocampus membranes, 1 nM [3H] 8-OH-DPAT, 25° C. 30 min; read-out: Ki value (nM) ±SE 5-HT1A
Sequence (P19327 whole entry): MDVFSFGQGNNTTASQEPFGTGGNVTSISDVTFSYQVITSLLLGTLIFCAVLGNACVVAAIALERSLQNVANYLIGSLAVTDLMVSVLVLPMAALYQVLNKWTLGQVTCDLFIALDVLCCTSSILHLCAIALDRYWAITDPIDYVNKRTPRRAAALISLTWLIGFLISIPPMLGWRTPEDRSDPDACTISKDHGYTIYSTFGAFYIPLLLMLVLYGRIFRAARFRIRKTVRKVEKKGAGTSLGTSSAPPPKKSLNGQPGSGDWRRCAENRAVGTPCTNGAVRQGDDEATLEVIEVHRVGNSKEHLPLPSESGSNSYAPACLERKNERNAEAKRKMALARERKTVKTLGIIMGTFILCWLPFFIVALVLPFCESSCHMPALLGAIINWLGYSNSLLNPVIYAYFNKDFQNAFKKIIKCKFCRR

[
  {
    "compound": "NC1COc2cccc3[nH]cc(c23)C1 (stereo not drawn) [Compound 8-1]",
    "Ki": "36 nM"
  },
  {
    "compound": "O=S(=O)(c1ccccc1)n1cc2c3c(cccc31)OCC(N1CCCC1)C2 (stereo not drawn) [Compound 36-1]",
    "Ki": "29 nM"
  },
  {
    "compound": "CN(C)C1CC(=O)c2cccc3[nH]cc(c23)C1 (stereo not drawn) [Compound 19-1]",
    "Ki": "81 nM"
  },
  {
    "compound": "CCN(CC)C1COc2cccc3c2c(cn3S(=O)(=O)c2ccccc2)C1 (stereo not drawn) [Compound 36-3]",
    "Ki": "58 nM"
  },
  {
    "compound": "CN(C)C1COc2c(-c3ccccc3)ccc3[nH]cc(c23)C1 (stereo not drawn) [Compound 38]",
    "Ki": "83 nM"
  },
  {
    "compound": "C=Cc1ccc2[nH]cc3c2c1OCC(N(C)C)C3 (stereo not drawn) [Compound 40]",
    "Ki": "15 nM"
  },
  {
    "compound": "CCc1ccc2[nH]cc3c2c1OCC(N(C)C)C3 (stereo not drawn) [Compound 41]",
    "Ki": "57 nM"
  },
  {
    "compound": "CN(C)C1COc2cccc3[nH]c(Br)c(c23)C1 (stereo not drawn) [Compound 21]",
    "Ki": "14 nM"
  },
  {
    "compound": "COC(=O)/C=C/c1ccc2[nH]cc3c2c1OCC(N(C)C)C3 (stereo not drawn) [Compound 39]",
    "Ki": "27 nM"
  }
]
